study_target: CDK9/T1 (Homo sapiens)
Sequence (P50750 whole entry): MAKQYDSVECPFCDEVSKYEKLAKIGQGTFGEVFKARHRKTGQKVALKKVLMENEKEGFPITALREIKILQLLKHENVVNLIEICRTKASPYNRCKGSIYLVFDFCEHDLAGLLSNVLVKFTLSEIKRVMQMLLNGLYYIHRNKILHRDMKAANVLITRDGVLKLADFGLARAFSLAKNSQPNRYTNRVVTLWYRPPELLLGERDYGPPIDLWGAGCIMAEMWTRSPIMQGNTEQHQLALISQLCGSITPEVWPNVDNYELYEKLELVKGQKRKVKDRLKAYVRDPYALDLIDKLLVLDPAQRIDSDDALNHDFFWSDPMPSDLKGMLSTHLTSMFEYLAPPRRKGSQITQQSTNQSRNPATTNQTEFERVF
Sequence (O60563 whole entry partner): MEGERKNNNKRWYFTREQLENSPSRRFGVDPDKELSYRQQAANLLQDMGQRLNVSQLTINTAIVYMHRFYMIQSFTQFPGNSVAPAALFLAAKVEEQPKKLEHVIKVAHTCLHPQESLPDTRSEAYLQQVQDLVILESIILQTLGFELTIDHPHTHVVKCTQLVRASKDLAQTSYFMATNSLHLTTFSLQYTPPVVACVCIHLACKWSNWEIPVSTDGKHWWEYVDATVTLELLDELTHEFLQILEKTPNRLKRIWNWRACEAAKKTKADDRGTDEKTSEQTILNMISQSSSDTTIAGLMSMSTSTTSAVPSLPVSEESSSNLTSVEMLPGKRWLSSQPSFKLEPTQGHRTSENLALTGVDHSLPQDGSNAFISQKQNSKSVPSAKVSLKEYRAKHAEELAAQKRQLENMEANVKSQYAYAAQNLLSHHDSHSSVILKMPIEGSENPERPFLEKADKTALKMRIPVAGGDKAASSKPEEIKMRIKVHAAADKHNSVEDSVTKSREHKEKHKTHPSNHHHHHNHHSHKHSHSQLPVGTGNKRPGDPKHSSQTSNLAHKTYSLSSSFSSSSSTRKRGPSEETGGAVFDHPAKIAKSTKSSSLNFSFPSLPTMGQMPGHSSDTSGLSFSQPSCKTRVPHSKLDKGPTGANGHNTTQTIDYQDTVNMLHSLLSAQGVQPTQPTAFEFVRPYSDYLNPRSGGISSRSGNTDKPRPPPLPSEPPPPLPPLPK
protocol_text: ADP Glo Kinase assay CDK9/T1
Assay type: biochemical
settings: CDK9T1; read-out: CDK inhibition, Ki (μM) CDK9T1
// reported Ki per item
Respond with the figure and its unit, in that order.

// below: answered compounds
Cc1cnc(NC2CCCC(N)C2)nc1-c1cnc2ccc(Nc3cncnc3)cn12 (centres unmarked) [Compound 96] = 0.193 µM
COC(=O)CN1CCC(Nc2ncc(F)c(-c3cnc4ccccn34)n2)CC1 [Compound 23] = 0.063 µM
Cc1cnc(N[C@H]2CC[C@H](N)CC2)nc1-c1cnc2cc(-c3ccccc3)ccn12 [Compound 53] = 0.049 µM
Cc1cnc(N[C@H]2CC[C@H](N)CC2)nc1-c1cnc2ccc(-c3ncccc3F)cn12 [Compound 30] = 0.12 µM
Cc1cnc(N[C@H]2CC[C@H](NC3CCN(C)CC3)CC2)nc1-c1cnc2ccc(-c3ccccc3)cn12 [Compound 90] = 0.211 µM
Cc1cnc(N[C@H]2CC[C@H](N)CC2)nc1-c1cnc2ccc(Nc3ccccc3)cn12 [Compound 31] = 0.018 µM
N[C@H]1CC[C@H](Nc2ncc(Cl)c(-c3cnc4c(Br)cc(C(F)(F)F)cn34)n2)CC1 [Compound 14] = 0.007 µM
Cc1cnc(N[C@H]2CC[C@H](N)CC2)nc1-c1cnc2ccc(Nc3cncc(C(F)(F)F)c3)cn12 [Compound 65] = 0.024 µM
Cc1cnc(N[C@]23C[C@@]4(C)C[C@](C)(C[C@](O)(C4)C2)C3)nc1-c1cnc2ccc(Nc3cncnc3)cn12 [Compound 102] = 0.109 µM
N[C@H]1CC[C@H](Nc2ncc(Cl)c(-c3cnc4ccc(Nc5cncnc5)cn34)n2)CC1 [Compound 88] = 0.002 µM

Ask | Form field: reported Ki of N[C@H]1CC[C@H](Nc2ncc(Cl)c(-c3cnc4ccc(-c5ccccc5)cn34)n2)CC1 [Compound 79]
Reply | 0.004 µM

Ask | Try N[C@H]1CC[C@H](Nc2ncc(-c3ccccc3)c(-c3cnc4ccc(-c5ccccc5)cn34)n2)CC1 [Compound 80] next.
Reply | 0.2 µM

Ask | Next compound: Cc1cnc(N[C@H]2CC[C@H](N)CC2)nc1-c1cnc2ccc(Nc3ccccn3)cn12 [Compound 128]
Reply | 0.31 µM

Ask | Proceed to N[C@H]1CC[C@H](Nc2ncc(F)c(-c3cnc4ccc(F)cn34)n2)CC1 [Compound 2]
Reply | 0.005 µM

Ask | Same for CN1CCC(Nc2ncc(F)c(-c3cnc4ccc(-c5ccccc5)cn34)n2)CC1 [Compound 144]
Reply | 0.138 µM

Ask | Now consider N[C@H]1CC[C@H](Nc2ncc(Cl)c(-c3cnc4c(-c5ccccc5)cc(C(F)(F)F)cn34)n2)CC1 [Compound 85] .
Reply | 0.13 µM

Ask | Consider next the compound Fc1cnc(N[C@H]2CC[C@H](Nc3ccccn3)CC2)nc1-c1cnc2ccc(-c3ccccc3)cn12 [Compound 28] in the same way.
Reply | 0.85 µM
